Attribution: patent US20200317642A1

Target: human EHMT2 913-1193 (Homo sapiens)
Construct: recombinant purified human EHMT2 913-1193, Viva; purchased Viva
Sequence (Q96KQ7 913-1193): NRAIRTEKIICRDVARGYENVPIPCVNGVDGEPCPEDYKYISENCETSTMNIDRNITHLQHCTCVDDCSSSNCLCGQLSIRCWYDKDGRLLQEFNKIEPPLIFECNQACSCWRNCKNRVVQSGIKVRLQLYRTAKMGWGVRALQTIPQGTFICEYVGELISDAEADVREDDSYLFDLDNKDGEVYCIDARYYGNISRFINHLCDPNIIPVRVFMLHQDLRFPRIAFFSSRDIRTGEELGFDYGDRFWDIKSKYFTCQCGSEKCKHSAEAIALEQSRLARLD
Test: EHMT2 enzyme assay on histone peptide substrate
Assay type: biochemical
Settings: Table 3A; histone H3 1-15 peptide, balanced conditions; read-out: EHMT2 (IC50 μM)
Below, each entry is listed with its recorded IC50.
propertyLabel: IC50

1) CNCc1cn(-c2c(OC)cc3c(c2F)N=C(N)C32CCC2)nn1 = 0.01 to 0.1 µM
2) CNc1cc(C)nc(Nc2ccc(OC)c(-n3cc(C4CCCN4)nn3)c2F)n1 (stereo not drawn) = 0.01 to 0.1 µM
3) CNC1=Nc2cc(-n3cc4c(n3)CCCNC4)c(OC)cc2C12CCC2 = < 0.01 µM
4) CNCc1cn(-c2cc3c(cc2OC)C2(CCC2)C(NC)=N3)cn1 = 0.01 to 0.1 µM
5) CNCc1cn(-c2c(Cl)ccc(Nc3nc(C)cc(NC)n3)c2Cl)nn1 = < 0.01 µM
6) CNc1cc(C)nc(Nc2ccc(OC)c(-n3cc4c(n3)CCCN(C)C4)c2F)n1 = < 0.01 µM
7) CNCc1cn(-c2c(OC)ccc(Nc3nc(C)cc(NC)n3)c2F)nn1 = 0.01 to 0.1 µM
8) CNc1cc(C)nc(Nc2ccc(OC)c(-n3cc([C@@H]4CCCN4)nn3)c2F)n1 = 0.1 to 1 µM
9) CNCc1cc(-c2c(OC)ccc(Nc3nc(C)cc(NC)n3)c2F)no1 = 0.01 to 0.1 µM
10) CNC1=Nc2cc(-n3cc(C4CCCN4)nn3)c(Cl)cc2C12CCC2 (stereo not drawn) = 0.01 to 0.1 µM
11) CNC1=Nc2cc(-n3cc([C@@H]4CCCN4)nn3)c(Cl)cc2C12CCC2 = 0.1 to 1 µM
12) CNc1cc(C)nc(Nc2ccc(OC)c(-n3cc(CNC(C)C)cn3)c2F)n1 = 0.1 to 1 µM
13) CNc1cc(C)nc(Nc2ccc(Cl)c(-n3cc(CN)cn3)c2Cl)n1 = < 0.01 µM
14) CNC1=Nc2cc(-n3cc([C@H]4CCCN4C)nn3)c(Cl)cc2C12CCC2 [Compound A52R] = 0.01 to 0.1 µM
15) CNC1=Nc2cc(-n3cc4c(n3)CCCN(C)C4)c(Cl)cc2C12CCC2 = < 0.01 µM
16) CCN1CCCc2nn(-c3cc4c(cc3Cl)C3(CCC3)C(NC)=N4)cc2C1 = < 0.01 µM
17) CNc1cc(C)nc(Nc2ccc(OC)c(-n3cc([C@H]4CCCN4)nn3)c2F)n1 = 0.01 to 0.1 µM
18) CNC1=Nc2cc(-n3cc(CN4CCC4)cn3)c(Cl)cc2C12CCC2 = 0.01 to 0.1 µM
